Tested on: HIV-1 strain IIIB
Assay: Retrovirucidal effect on HIV-1 strain IIIB (Table 3)
Format: cell-based
Details: pIC50=-log IC50, IC50 in M
measurement-type: HIV1 pIC50 strain IIIB

smiles-input: CCc1c(C)[nH]c(=O)c(N(C)CCOC)c1C(=O)c1cccc(C)c1
study-target: HIV-1 strain IIIB
recorded-value: 8.921
//
smiles-input: CCc1c(Cc2cc(C)cc(C)c2)c(N(C)C)c(=O)n(-c2ccccc2)c1C
study-target: HIV-1 strain IIIB
recorded-value: 4.21
//
smiles-input: CCc1cccc(Cc2c(CC)c(C)[nH]c(=O)c2N(C)C)c1
study-target: HIV-1 strain IIIB
recorded-value: 8.569
//
smiles-input: CCc1c(C)[nH]c(=O)c(N(C)CCOC)c1Cc1cccc(C(F)(F)F)c1
study-target: HIV-1 strain IIIB
recorded-value: 7.821
//
smiles-input: CCc1c(C)[nH]c(=O)c(N(C)C)c1C(=O)c1cccc(C)c1
study-target: HIV-1 strain IIIB
recorded-value: 8.721

----------
Test system: HIV-1 strain IIIB
Assay: Retrovirucidal effect on HIV-1 strain IIIB (Table 3)
Type: cell-based
Conditions: pIC50=-log IC50, IC50 in M
Hi! Could you tag entries with HIV1 pIC50 strain IIIB below 8 as Yes, and those at or above as No? Much appreciated.

compound: CCc1c(C)[nH]c(=O)c(N(C)C)c1CN(C)c1cc(C)cc(C)c1 [Compound 133]
assigned-class: Yes
//
compound: CCc1c(C)[nH]c(=O)c(N(C)C)c1Cc1nccn1C [Compound 88]
assigned-class: Yes
//
compound: CCCNc1c(Cc2cc(C)cc(C)c2)c(CC)c(C)[nH]c1=O [Compound 82]
assigned-class: Yes
//
compound: CCc1c(C)[nH]c(=O)c(N(C)C)c1CSc1cccc(C)c1 [Compound 166]
assigned-class: Yes
//
compound: CCc1c(C)[nH]c(=O)c(N(C)C)c1C(=O)c1cc(F)cc(C(F)(F)F)c1 [Compound 183]
assigned-class: No
//
compound: CCc1c(C)[nH]c(=O)c(N)c1CNCc1cccc(C)c1 [Compound 83]
assigned-class: Yes

----------
Assay: Anti HIV activity, HIV-2 D 194 in PBMC
Type: cell-based
Settings: HIV-2 D 194/PBMC

smiles-input: CCc1c(C)[nH]c(=O)c(N(C)C)c1Cc1cc(C)cc(C)c1
CC50: > 1000 nM

----------
Test system: HIV-1 strain IIIB
Experiment: Retrovirucidal effect on HIV-1 strain IIIB (Table 3)
Type: cell-based
Settings: pIC50=-log IC50, IC50 in M

molecule: CCc1c(C)[nH]c(=O)c(N(C)C)c1Cc1ccccc1Cl [Compound 65]
inequality-operator: =
HIV1 pIC50 strain IIIB: 8.284

molecule: CCc1c(C)[nH]c(=O)c(N(C)C)c1Cc1cccc(C)c1C [Compound 20]
inequality-operator: =
HIV1 pIC50 strain IIIB: 6.926

molecule: CCc1c(C)[nH]c(=O)c(N)c1C(=O)Cc1cccc(C)c1 [Compound 124]
inequality-operator: =
HIV1 pIC50 strain IIIB: 4.389

molecule: Cc1cccc(Cc2c3c([nH]c(=O)c2N)CCC3)c1 [Compound 131]
inequality-operator: =
HIV1 pIC50 strain IIIB: 5.799

molecule: CCc1c(C)[nH]c(=O)c(N(C)C)c1Cc1ccc2c(c1)OCCO2 [Compound 135]
inequality-operator: =
HIV1 pIC50 strain IIIB: 6.688

molecule: CCc1c(C)[nH]c(=O)c(N)c1Cc1cccc(Cl)c1 [Compound 39]
inequality-operator: =
HIV1 pIC50 strain IIIB: 5

molecule: CCc1c(C)[nH]c(=O)c(N)c1CNCc1ccccc1 [Compound 80]
inequality-operator: <
HIV1 pIC50 strain IIIB: 4

molecule: CCc1c(C)[nH]c(=O)c(NC)c1Cc1cccc(C(F)(F)F)c1 [Compound 139]
inequality-operator: =
HIV1 pIC50 strain IIIB: 6.908

molecule: CCc1c(C)[nH]c(=O)c(N(C)C)c1CN(C)Cc1ccccc1 [Compound 102]
inequality-operator: =
HIV1 pIC50 strain IIIB: 4.369
